B1: KLHL13 (parent)
chain: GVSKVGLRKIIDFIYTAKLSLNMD

variants of: B1; assay: protein stability index of a GFP-peptide fusion (GPS, HEK-293T) (PSI 1-6); higher = more stable; conditions: c terminus: a fixed tail appended;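 further: lentivirally expressed fusions sorted by FACS into six bins by GFP to DsRed ratio, PSI derived from sequencing read proportions per bin multiplied by bin number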
Class MET: protein stability index at least 2. Class NOT MET: protein stability index below 2.

Solved cases (2 shown):
M23H | MET
K18S | MET

Textbook exercise: given the entry `K4I` , state whether its protein stability index is greater than or equal to 2.
NOT MET

Textbook exercise: given the entry `K4D` , state whether its protein stability index is greater than or equal to 2.
MET
